Attribution: PubChem BioAssay AID1857

# Tested on: VIM-2 metallo-beta-lactamase (Pseudomonas aeruginosa)
# procedureSummary: VIM-2 inhibitors in FRET format, confirmation, artefact control for selective VIM-2 inhibitor project, biochemical, epi-absorbance artifact exclusion (AID 1857);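 note: 0% = VIM-2 plus DMSO and 100% = no enzyme wells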
# experimentalSetup: purified VIM-2, CCF2 FRET substrate hydrolysis; at 5.6 µM; hits give high values
Out of some 1,300 compounds screened, about 290 (22%) were called active. The list is a sample of the results.
Consider the following compounds and their measured inhibition readings.
Reply numerically in %, unit not repeated.

Example entries begin here.
compound	tgt	unitInfo	testValue
O=C(NC(=S)Nc1ccccc1C(=O)O)c1ccc(-c2ccc(Br)cc2)o1	VIM-2 metallo-beta-lactamase (Pseudomonas aeruginosa)	%	11.2
Cc1ccc2nc(C)c3c(c2c1)N(c1ccccc1)CC3	VIM-2 metallo-beta-lactamase (Pseudomonas aeruginosa)	%	-1.46
Cc1ccc(Cl)cc1-c1ccc(/C=N/n2cnnc2)o1	VIM-2 metallo-beta-lactamase (Pseudomonas aeruginosa)	%	-0.56
NC(=O)C1CCN(C(=O)COc2ccc3c4c(c(=O)oc3c2)CCC4)CC1	VIM-2 metallo-beta-lactamase (Pseudomonas aeruginosa)	%	-2.54
Fc1ccc(-c2ccc(CNCc3ccccn3)o2)cc1Cl	VIM-2 metallo-beta-lactamase (Pseudomonas aeruginosa)	%	-13.3
COc1cc(/C=N/Nc2nn3cnnc3c3ccccc23)cc(OC)c1OC	VIM-2 metallo-beta-lactamase (Pseudomonas aeruginosa)	%	0.17
O=C1Nc2cc(C(=O)N3CCC(N4CCCCC4)CC3)ccc2S/C1=C\c1ccccc1	VIM-2 metallo-beta-lactamase (Pseudomonas aeruginosa)	%	53.6
CCOc1cc(/C=C2\SC(N3CCCC(C)C3)=NC2=O)ccc1O (configuration not stated)	VIM-2 metallo-beta-lactamase (Pseudomonas aeruginosa)	%	-2.85

inhibition lookup needed for O=C(COc1cc2oc(=O)c3c(c2cc1Cl)CCC3)NCCCN1CCOCC1 , thanks.
-0.64

So what does the record say about inhibition for CCN1CCN(CCNC(=O)c2ccc3c(c2)NC(=O)/C(=C\c2ccc(OC)c(OC)c2)S3)CC1 ?
31

Looking for the measured inhibition of CCOCCCNc1c(CC)c(C)c(C#N)c2nc3ccccc3n12 , can you help?
0.59

Consider the compound CCN1CCN(C(=O)Cn2nc(C)n3c(cc4c(OC)cccc43)c2=O)CC1 and give its measured inhibition.
1.55

---

# Tested on: VIM-2 metallo-beta-lactamase (Pseudomonas aeruginosa)
# procedureSummary: VIM-2 inhibitors in FRET format, confirmation, artefact control for selective VIM-2 inhibitor project, biochemical, epi-absorbance artifact exclusion (AID 1857);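 note: 0% = VIM-2 plus DMSO and 100% = no enzyme wells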
# experimentalSetup: purified VIM-2, CCF2 FRET substrate hydrolysis; at 5.6 µM
In all, about 1,300 compounds went through this assay and about 290 (22%) were called active.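 Rule for the calls: active = inhibition above the mean of all tested compounds plus 3 SD (cut at about 19% in these data); inactive = the rest.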 Not all results are given here.
Select the correct class. Options are 1 (active), 0 (inactive) and nothing else.

compound	classLabel
Cc1cc(NCc2ccco2)n2c(nc3ccccc32)c1C#N	0
Cc1nc2ccccc2c2oc(C(=O)NCCCN3CCC(C)CC3)cc12	0
COc1cc(NC(=O)C2=C(C)OCCS2)c(Cl)cc1C(=O)NCCN1CCN(C)CC1	0
O=c1[nH]c(-c2ccccc2)c(-c2ccccc2)[nH]1	0
COc1ccc(CCn2c(=N)c(C(=O)NCC3CCCO3)cc3c(=O)n4cccc(C)c4nc32)cc1OC (stereo not drawn)	0
COc1ccc(-c2nn3c(-c4ccccc4)nnc3s2)cc1OC	0
C=CCn1c(-c2ccccc2OCC)n[nH]c1=S	1
CC(C)(C)CC(=O)Nc1nnc(SCC(=O)NCc2cccs2)s1	1

Which outcome did this test record for the compound Cn1c(=O)c2c(nc(N3CCOCC3)n2CCNC2=NCCC2)n(C)c1=O ?
0

How was Nc1nnc2c(C(F)(F)F)nc3ccccc3n12 classified in this test?
0

Each compound tested received a call. Report the one for COc1nc(N=C(N)N)nc2c(C)cccc12 .
0

How was CCOC(=O)N1CCN(C(=O)C2CCN(c3ncnc4c3sc3cccc(F)c34)CC2)CC1 classified in this test?
0

Identify the outcome logged in this assay for the compound shown: COc1ccc(Cc2nnc(NS(=O)(=O)Cc3ccccc3)s2)cc1
1

Recorded test call requested for COc1ccc(Nc2cc(C)nc(-n3nc(C)cc3C)n2)cc1
0

How was CCN1CCCC1CNC(=O)c1cc2c(=O)n(C)c3ccccc3c2n1C (stereo not drawn) classified in this test?
0

Record request — test call for CN(C)CCNc1ccc(-c2n[nH]c(=O)c3ccccc23)cc1[N+](=O)[O-]
0

Which outcome was assigned to Cn1c2ccccc2c(=O)c2c(O)cccc21 in this test?
0

Answer briefly: the call reported for O=C(NCCCN1CCOCC1)c1cnn2c(-c3ccccc3)cc(-c3ccccc3)nc12 in this assay.
0

For this compound, state the assay outcome: Clc1cc(-c2ccc(/C=N/n3cnnc3)o2)ccc1Br
0

Test call, this compound: Cc1cc(C)c2nc3nc(C)cc(C)c3c(N)c2c1
0

State the result this test recorded for COC(=O)c1ccc(-c2noc(CN(Cc3ccccn3)CC3CCCO3)n2)cc1 (stereo not drawn) .
0

For this compound, state the assay outcome: CCN(CC)CCOc1ccc2c(c1)C(=NNC(=O)c1ccccn1)c1cc(OCCN(CC)CC)ccc1-2
0

Dear all, I need the recorded test outcome for CC1CCCC(C)N1CCCNC(=O)c1cc2c(=O)n(C)c3ccccc3c2n1C (stereo not drawn) , thank you.
0
